study target: T1, human TREM2 on BWZ cells (human, UniProt Q9NZC2 19-230)
T1 construct: whole, on cells; not tied to the cell line; also called BWZ Human TREM2
T1 sequence (looked up): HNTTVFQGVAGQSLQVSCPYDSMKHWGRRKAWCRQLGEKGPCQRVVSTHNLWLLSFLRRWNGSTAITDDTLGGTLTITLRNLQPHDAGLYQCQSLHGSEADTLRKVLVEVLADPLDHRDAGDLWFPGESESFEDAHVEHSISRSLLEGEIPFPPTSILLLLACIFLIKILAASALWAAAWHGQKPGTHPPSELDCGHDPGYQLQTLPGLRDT
experiment summary: FACS, BWZ cells
value kind: binding result

T1-51 (antibody, IgG1, V domains shown, huIgG1; also called TI-51; ADI-19126) VH: QVQLVQSGAEVKKPGSSVKVSCKASGGTFSSYAISWVRQAPGQGLEWMGSIIPIFGTANYAQKFQGRVTITADESTSTAYMELSSLRSEDTAVYYCARSGGYSSSWYGTGYDYWGQGTLVTVSS VL: DIQMTQSPSTLSASVGDRVTITCRASQSISSWLAWYQQKPGKAPKLLIYKASSLESGVPSRFSGSGSGTEFTLTISSLQPDDFATYYCQQFQSYPFTFGGGTKVEIK | no binding
T1-71 (antibody, IgG1, V domains shown, huIgG1; also called TI-71; ADI-19147) VH: EVQLVESGGGLVQPGRSLRLSCAASGFTFGDYAMHWVRQAPGKGLEWVSGISWNSGSIGYADSVKGRFTISRDNAKNSLYLQMNSLRAEDTALYYCAKGPRRTSHLDIWGQGTMVTVSS VL: DIQMTQSPSSVSASVGDRVTITCRASQGIDSWLAWYQQKPGKAPKLLIYAASSLQSGVPSRFSGSGSGTDFTLTISSLQPEDFATYYCQQATSLPLTFGGGTKVEIK | no binding
